- TESTED ON: 5-LO enzyme (Homo sapiens, UniProt P09917)
- Sequence (P09917 1-674): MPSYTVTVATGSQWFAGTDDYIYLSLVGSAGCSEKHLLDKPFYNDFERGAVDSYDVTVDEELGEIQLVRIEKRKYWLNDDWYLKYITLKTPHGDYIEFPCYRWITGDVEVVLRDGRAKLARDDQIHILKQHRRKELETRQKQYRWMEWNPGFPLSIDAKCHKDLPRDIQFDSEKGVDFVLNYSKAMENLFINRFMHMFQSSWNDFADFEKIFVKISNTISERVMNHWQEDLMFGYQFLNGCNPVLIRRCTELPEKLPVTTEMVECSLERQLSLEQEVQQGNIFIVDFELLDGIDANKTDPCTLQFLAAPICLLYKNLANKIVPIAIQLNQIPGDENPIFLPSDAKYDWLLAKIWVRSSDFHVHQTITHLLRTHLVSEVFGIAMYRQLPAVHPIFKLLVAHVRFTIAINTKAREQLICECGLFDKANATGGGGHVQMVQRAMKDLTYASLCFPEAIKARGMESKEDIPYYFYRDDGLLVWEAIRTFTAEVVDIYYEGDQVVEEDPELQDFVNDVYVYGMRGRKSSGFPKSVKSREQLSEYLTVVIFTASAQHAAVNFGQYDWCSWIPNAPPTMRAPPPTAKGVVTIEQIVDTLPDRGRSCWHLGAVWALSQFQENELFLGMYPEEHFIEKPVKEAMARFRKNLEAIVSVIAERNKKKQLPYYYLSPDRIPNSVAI
- TEST METHOD NOTES: 5-LO enzyme inhibition
- Type: biochemical
- CONDITIONS: read-out: 5-LO inhibitory activity IC50
PROPERTY LABEL: IC50

c1ccc2c(c1)SCc1c-2[nH]c2ccccc12 | > 100 µM

# evaluate next
stdin: Look up IC50: Clc1ccc(-c2nc3ccc(Cl)cc3[nH]2)cc1
stdout: > 10 µM
